In this section, each of the variants is paired with its reported polymerase ribozyme fitness (log ratio).
B1: TPR 5TU (parent)
chain: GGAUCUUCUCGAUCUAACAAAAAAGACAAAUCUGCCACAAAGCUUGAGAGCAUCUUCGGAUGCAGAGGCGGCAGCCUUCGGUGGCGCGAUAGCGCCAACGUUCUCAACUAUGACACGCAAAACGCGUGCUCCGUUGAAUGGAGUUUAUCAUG

variants of: B1; assay: polymerase ribozyme fitness, log enrichment relative to wild type (log ratio); higher = more active; in vitro selection for triplet polymerase activity
Variants at the floor of the assay were thinned out.
parameter_measured: polymerase ribozyme fitness (log ratio)

mutations="A52G U109G A122U" value_modifier== reported_value=-1.46
mutations="C79A U101G" value_modifier=≤ reported_value=-4.2
mutations="G80C C131G" value_modifier== reported_value=-4.04
mutations="G70C G88U A91G C95A A119G U144C U148C" value_modifier=≤ reported_value=-4.2
mutations="A22U C69A A91U" value_modifier=≤ reported_value=-4.2
mutations="U6G G141A" value_modifier== reported_value=0.243
mutations="C85G G126A U146A" value_modifier== reported_value=-1.79
mutations="G94A G141A A150U" value_modifier=≤ reported_value=-4.2
mutations="U7A C10A C14U C32G C36A U53G U55G U61A G67C U82G C87G C96U C103G" value_modifier=≤ reported_value=-4.2
mutations="C5G C10G A28U U33G C79U" value_modifier=≤ reported_value=-4.2
mutations="G70A G84A C87G A113C A120G" value_modifier=≤ reported_value=-4.2
mutations="C87A U101G G124A A142C" value_modifier== reported_value=-4.02
mutations="A24U C35A A41C G88C" value_modifier=≤ reported_value=-4.2
mutations="U6A C35A C63U C69U C76A G83C" value_modifier=≤ reported_value=-4.2
mutations="A17G C38A U45A C69A C85U A142C C149U U151G" value_modifier=≤ reported_value=-4.2
mutations="A97U U139C G140C U145G" value_modifier== reported_value=-3.85
mutations="U15G C103A" value_modifier== reported_value=-1.91
mutations="U6G C87U" value_modifier== reported_value=-0.579

Values were extracted from the RNAGym collection of RNA variant scans (doi:10.1073/pnas.2313332121).
